- measurement.target: human IBAT (Homo sapiens, UniProt Q12908)
- Sequence (Q12908 whole entry): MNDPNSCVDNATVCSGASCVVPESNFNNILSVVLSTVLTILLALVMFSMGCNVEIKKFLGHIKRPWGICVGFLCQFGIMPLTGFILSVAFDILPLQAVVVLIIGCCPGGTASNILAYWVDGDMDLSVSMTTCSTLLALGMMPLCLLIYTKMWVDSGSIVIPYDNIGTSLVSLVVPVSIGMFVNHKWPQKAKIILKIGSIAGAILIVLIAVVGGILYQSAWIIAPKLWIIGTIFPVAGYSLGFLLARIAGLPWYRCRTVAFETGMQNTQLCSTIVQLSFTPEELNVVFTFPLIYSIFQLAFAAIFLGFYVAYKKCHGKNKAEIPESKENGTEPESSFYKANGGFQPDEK
- protocol: In vitro assay using Cos 7 cells, transiently expressed human IBAT
- Assay type: cell-based
- assay.setup: [3H]-taurocholate 8 μM uptake, 37° C., 60 minutes
pIC50: −log10 of the molar value.
readout.label: pIC50

>  <compound>
CCCCC1(CCCC)CS(=O)(=O)c2ccc(N(C)C)cc2C(c2cccc(NC(=S)Nc3ccc(C[n+]4ccc(-c5ccccc5)cc4)c(C(F)(F)F)c3)c2)N1 (stereo not drawn)

>  <meas.value>
7.49

$$$$
>  <compound>
CCCCC1(CCCC)CS(=O)(=O)c2ccc(N(C)C)cc2C(c2cccc(NC(=S)CCCCC[N+](C)(C)Cc3ccccc3)c2)N1.[Br-] (stereo not drawn)

>  <meas.value>
7.37

$$$$
>  <compound>
CCCCC1(CCCC)CS(=O)(=O)c2ccc(N(C)C)cc2C(c2cccc(NC(=S)Nc3ccc(C[n+]4cc(C)cc(C)c4)cc3)c2)N1 (stereo not drawn)

>  <meas.value>
7.06

$$$$

* * *

- Test system: rats dosed cholic acid
- protocol: Lowering effect on bile acid concentrations in portal vein blood in rats dosed cholic acid
- Assay type: in vivo, rat
- assay.setup: 0.1 mg/kg oral with cholic acid 200 mg/kg; portal vein serum total bile acid 2 hours after; control = 100%; surfactant HCO-60 (##)
Assign class by BILE ACID REDUCTION RATE (%) IN RAT MODEL WITH CHOLIC ACID LOADING: not lower than 30% means 1.0; lower than 30% means 0.0.

>  <compound>
CCCCC1(CCCC)CS(=O)(=O)c2ccc(N(C)C)cc2C(c2cccc(NC(=S)Nc3ccccc3C[N+]34CCC(CC3)CC4)c2)N1.[Br-] (stereo not shown)

>  <measurement.target>
rats dosed cholic acid

>  <qualitative.label>
0.0

$$$$
>  <compound>
CCCCC1(CCCC)CS(=O)(=O)c2ccc(N(C)C)cc2C(c2cccc(NC(=S)Nc3ccc(C[N+]4(Cc5ccccc5)CCC(O)CC4)cc3)c2)N1.[Br-] (stereo not shown)

>  <measurement.target>
rats dosed cholic acid

>  <qualitative.label>
0.0

$$$$
>  <compound>
CCCCC1(CCCC)CS(=O)(=O)c2ccc(N(C)C)cc2C(c2cccc(NC(=S)Nc3ccc(C[n+]4ccccc4CCC)cc3)c2)N1.[Br-] (stereo not shown)

>  <measurement.target>
rats dosed cholic acid

>  <qualitative.label>
1.0

$$$$
>  <compound>
CCCCC1(CCCC)CS(=O)(=O)c2ccc(N(C)C)cc2C(c2cccc(NC(=S)Nc3ccc(C[N+]45CCC(c6ccccc6)(CC4)CC5)cc3F)c2)N1.[Br-] (stereo not shown)

>  <measurement.target>
rats dosed cholic acid

>  <qualitative.label>
1.0

$$$$
>  <compound>
CCCCC1(CCCC)CS(=O)(=O)c2ccc(N(C)C)cc2C(c2cccc(NC(=S)Nc3ccc(C[N+]45CCC(c6ccccc6)(CC4)CC5)c(C)c3)c2)N1.[Br-] (stereo not shown)

>  <measurement.target>
rats dosed cholic acid

>  <qualitative.label>
1.0

$$$$
>  <compound>
CCCCC1(CCCC)CS(=O)(=O)c2ccc(N(C)C)cc2C(c2cccc(NC(=S)Nc3ccc(C[n+]4ccc(C(C)(C)C)cc4)c(C)c3)c2)N1.[Br-] (stereo not shown)

>  <measurement.target>
rats dosed cholic acid

>  <qualitative.label>
1.0

$$$$
>  <compound>
CCCCC1(CCCC)CS(=O)(=O)c2ccc(N(C)C)cc2C(c2cccc(NC(=S)Nc3ccc(C[n+]4cccc(CCCO)c4)cc3)c2)N1.[Br-] (stereo not shown)

>  <measurement.target>
rats dosed cholic acid

>  <qualitative.label>
1.0

$$$$
>  <compound>
CCCCC1(CCCC)CS(=O)(=O)c2ccc(N(C)C)cc2C(c2cccc(NC(=S)Nc3ccc(C[N+](C)(C)CCCC)cc3)c2)N1.[Br-] (racemic)

>  <measurement.target>
rats dosed cholic acid

>  <qualitative.label>
0.0

$$$$
>  <compound>
CCCCC1(CCCC)CS(=O)(=O)c2ccc(N(C)C)cc2C(c2cccc(NC(=S)Nc3ccc(C[N+]45CCC(c6ccccc6)(CC4)CC5)cc3)c2)N1.[Br-] (racemic)

>  <measurement.target>
rats dosed cholic acid

>  <qualitative.label>
0.0

$$$$
>  <compound>
CCCCC1(CCCC)CS(=O)(=O)c2ccc(N(C)C)cc2C(c2cccc(NC(=S)Nc3ccc(C[n+]4ccc(C(C)(C)C)cc4)cc3F)c2)N1.[Br-] (stereo not shown)

>  <measurement.target>
rats dosed cholic acid

>  <qualitative.label>
1.0

$$$$
>  <compound>
CCCCC1(CCCC)CS(=O)(=O)c2ccc(N(C)C)cc2C(c2cccc(NC(=S)Nc3ccc(C[n+]4ccc(CC)cc4)cc3)c2)N1.[Br-] (stereo not shown)

>  <measurement.target>
rats dosed cholic acid

>  <qualitative.label>
0.0

$$$$
>  <compound>
CCCCC1(CCCC)CS(=O)(=O)c2ccc(N(C)C)cc2C(c2cccc(NC(=S)Nc3ccc(C[N+](C)(C)CCOCCO)cc3)c2)N1.[Br-] (racemic)

>  <measurement.target>
rats dosed cholic acid

>  <qualitative.label>
0.0

$$$$
>  <compound>
CCCCC1(CCCC)CS(=O)(=O)c2ccc(N(C)C)cc2C(c2cccc(NC(=S)Nc3ccc(C[n+]4ccc5ccccc5c4)cc3)c2)N1.[Br-] (stereo not shown)

>  <measurement.target>
rats dosed cholic acid

>  <qualitative.label>
0.0

$$$$
>  <compound>
CCCCC1(CCCC)CS(=O)(=O)c2ccc(N(C)C)cc2C(c2cccc(NC(=S)Nc3ccc(C[n+]4ccc(C(C)(C)C)cc4)cc3)c2)N1.[Br-] (stereo not shown)

>  <measurement.target>
rats dosed cholic acid

>  <qualitative.label>
1.0

$$$$
>  <compound>
CCCCC1(CCCC)CS(=O)(=O)c2ccc(N(C)C)cc2C(c2cccc(NC(=S)Nc3ccc(C[n+]4cccc(CCC(=O)OC)c4)cc3)c2)N1.[Br-] (stereo not shown)

>  <measurement.target>
rats dosed cholic acid

>  <qualitative.label>
1.0

$$$$
>  <compound>
C#CC[N+](C)(Cc1ccccc1)Cc1ccc(NC(=S)Nc2cccc(C3NC(CCCC)(CCCC)CS(=O)(=O)c4ccc(N(C)C)cc43)c2)cc1.[Br-] (racemic)

>  <measurement.target>
rats dosed cholic acid

>  <qualitative.label>
0.0

$$$$

* * *

- Tested on: rats with partial ligation of the bile duct dosed bile acid
- protocol: Model for hepatic disorder associated with cholestasis (partial bile duct ligation model), Protocol A: AST, ALT, ALP
- Format: in vivo, rat
- assay.setup: Table 12-2; 1 mg/kg in 1% HCO 60; N=3, mean±standard error; control group 2204 ± 327, sham 630 ± 87
Assign class by ALP: not lower than 1000 IU/L means Satisfied; lower than 1000 IU/L means Not satisfied.

>  <compound>
CCCCC1(CCCC)CS(=O)(=O)c2ccc(N(C)C)cc2C(c2cccc(NC(=S)Nc3ccc(C[n+]4cccc(CCCO)c4)cc3)c2)N1.[Br-] (centres unmarked)

>  <qualitative.label>
Not satisfied

$$$$
>  <compound>
CCCCC1(CCCC)CS(=O)(=O)c2ccc(N(C)C)cc2C(c2cccc(NC(=S)Nc3ccc(C[n+]4cccc(CCC(=O)OC)c4)cc3)c2)N1.[Br-] (centres unmarked)

>  <qualitative.label>
Satisfied

$$$$
>  <compound>
CCCCC1(CCCC)CS(=O)(=O)c2ccc(N(C)C)cc2C(c2cccc(NC(=S)Nc3ccc(C[N+]45CCC(c6ccccc6)(CC4)CC5)cc3)c2)N1.[Br-] (racemic)

>  <qualitative.label>
Satisfied

$$$$

* * *

- measurement.target: rat IBAT (Rattus norvegicus, UniProt Q62633)
- Sequence (Q62633 whole entry): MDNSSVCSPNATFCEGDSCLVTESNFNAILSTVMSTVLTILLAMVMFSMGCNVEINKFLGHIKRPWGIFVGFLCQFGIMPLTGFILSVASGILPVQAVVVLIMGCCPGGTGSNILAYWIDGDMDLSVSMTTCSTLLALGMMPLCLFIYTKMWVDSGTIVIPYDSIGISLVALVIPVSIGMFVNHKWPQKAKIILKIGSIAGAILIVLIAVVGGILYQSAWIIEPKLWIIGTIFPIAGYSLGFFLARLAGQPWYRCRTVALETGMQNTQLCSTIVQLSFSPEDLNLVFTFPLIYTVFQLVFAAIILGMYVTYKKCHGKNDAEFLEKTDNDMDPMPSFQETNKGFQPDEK
- protocol: In vitro assay using Cos 7 cells, transiently expressed rat IBAT
- Assay type: cell-based
- assay.setup: [3H]-taurocholate 8 μM uptake, 37° C., 60 minutes

>  <compound>
CCCCC1(CCCC)CS(=O)(=O)c2ccc(N(C)C)cc2C(c2cccc(NC(=S)Nc3ccc(C[N+](C)(C)Cc4ccccc4)cc3)c2)N1.[Br-] (stereo not shown)

>  <IC50 (nM)>
10

$$$$
>  <compound>
CCCCC1(CCCC)CS(=O)(=O)c2ccc(N(C)C)cc2C(c2cccc(NC(=S)CCCCCCC[N+]34CCC(CC3)CC4)c2)N1.[Br-] (stereo not shown)

>  <IC50 (nM)>
9

$$$$
>  <compound>
CCCCC1(CCCC)CS(=O)(=O)c2ccc(N(C)C)cc2C(c2cccc(NC(=S)CCCCC[N+]34CCC(c5ccccc5)(CC3)CC4)c2)N1.[Br-] (stereo not shown)

>  <IC50 (nM)>
9

$$$$
>  <compound>
CCCCC1(CCCC)CS(=O)(=O)c2ccc(N(C)C)cc2C(c2cccc(NC(=S)Nc3ccc(C[N+]45CCC(c6ccccc6)(CC4)CC5)c(F)c3)c2)N1.[Br-] (stereo not shown)

>  <IC50 (nM)>
5.5

$$$$

* * *

- Tested on: Caco-2 cell
- protocol: Gastrointestinal toxicity: cytotoxicity against Caco-2 cell (LDH activity)
- Assay type: cell-based, human
- assay.setup: 10 μM, 2 hours; LDH activity in medium relative to cell lysis agent = 100%
The entries below are paired with their reported CELL TOXICITY AGAINST Caco2 10 μM.
readout.label: CELL TOXICITY AGAINST Caco2 10 μM

>  <compound>
CCCCC1(CCCC)CS(=O)(=O)c2ccc(N(C)C)cc2C(c2cccc(NC(=S)Nc3ccc(C[N+]45CCC(c6ccccc6)(CC4)CC5)cc3C)c2)N1.[Br-] (stereo not drawn)

>  <meas.value>
<1%

$$$$
>  <compound>
CCCCC1(CCCC)CS(=O)(=O)c2ccc(N(C)C)cc2C(c2cccc(NC(=S)Nc3ccc(C[N+]45CCC(c6ccccc6)(CC4)CC5)cc3Cl)c2)N1.[Br-] (stereo not drawn)

>  <meas.value>
<1%

$$$$
>  <compound>
CCCCC1(CCCC)CS(=O)(=O)c2ccc(N(C)C)cc2C(c2cccc(NC(=S)Nc3ccc(C[N+]45CCC(c6ccccc6)(CC4)CC5)cc3)c2)N1.[Br-] (racemic)

>  <meas.value>
<1%

$$$$
